- protocolSummary: PK study in male C57 mouse for Examples 14 and 15
- Type: in vivo
- testContext: male, C57, mouse, plasma, po, 10 mg/kg, Example 14 dosed 10 mpk PO gavage, 8.00 h, analyte = labelled compound
- Description: Pharmacokinetic studies were carried out with male C57 mouse. Compounds (Example 14 and Example 15) were each formulated in 5% DMSO+10% Solutol HS 15+85% Saline, and dosed at 1 mpk for IV injection (5 mL/kg) and 10 mpk for oral gavage (10 mUkg). Plasma samples at various time points were quantitated with LC-MS. Data reported were average of three mice. […]
property: concentration at 8 h (ng/mL)

A = COC(=O)c1cncc(-c2ccc3c(c2)C(=O)OC2(CCN(C(=O)c4cc(OC)c5cccc(OC)c5n4)CC2)C3)c1 [Example 14]
B = COc1cc(C(=O)N2CCC3(CC2)Cc2ccc(-c4cncc(C(=O)O)c4)cc2C(=O)O3)nc2c(OC)cccc12 [Example 15]
Q. // returns A or B , whichever has the lower concentration at 8 h API: response body contains the label of the selected item.
A. B

====

- protocolSummary: PK study in male C57 mouse for Examples 14 and 15
- Type: in vivo
- testContext: male, C57, mouse, plasma, iv, 1 mg/kg, Example 14 dosed 1 mpk IV
property: MRT (min)
Expressed in min, but write only the number.

Q. Answer with reported MRT of COC(=O)c1cncc(-c2ccc3c(c2)C(=O)OC2(CCN(C(=O)c4cc(OC)c5cccc(OC)c5n4)CC2)C3)c1
A. 24.6

====

- protocolSummary: PK study in male C57 mouse for Examples 14 and 15
- Format: in vivo
- testContext: male, C57, mouse, plasma, po, 10 mg/kg, Example 14 dosed 10 mpk PO gavage, analyte = labelled compound
property: Tmax (min)

{"smilesNotation": "COc1cc(C(=O)N2CCC3(CC2)Cc2ccc(-c4cncc(C(=O)O)c4)cc2C(=O)O3)nc2c(OC)cccc12", "scaleUnit": "min", "Tmax": 34.8}
{"smilesNotation": "COC(=O)c1cncc(-c2ccc3c(c2)C(=O)OC2(CCN(C(=O)c4cc(OC)c5cccc(OC)c5n4)CC2)C3)c1", "scaleUnit": "min", "Tmax": 25.2}

====

- protocolSummary: PK study in male C57 mouse for Examples 14 and 15
- Format: in vivo
- testContext: plasma, 1 mg/kg, Example 15 dosed 1 mpk IV
property: half-life (min)
Supply the numeric figure in min, leaving out any unit text.

Q. Give a short answer stating reported half-life for COc1cc(C(=O)N2CCC3(CC2)Cc2ccc(-c4cncc(C(=O)O)c4)cc2C(=O)O3)nc2c(OC)cccc12 [Example 15] .
A. 17.4

====

- protocolSummary: PK study in male C57 mouse for Examples 14 and 15
- Assay type: in vivo
- testContext: male, C57, mouse, plasma, po, 10 mg/kg, Example 14 dosed 10 mpk PO gavage, analyte = labelled compound
property: Cmax (ng/mL)

P = COC(=O)c1cncc(-c2ccc3c(c2)C(=O)OC2(CCN(C(=O)c4cc(OC)c5cccc(OC)c5n4)CC2)C3)c1 [Example 14]
Q = COc1cc(C(=O)N2CCC3(CC2)Cc2ccc(-c4cncc(C(=O)O)c4)cc2C(=O)O3)nc2c(OC)cccc12 [Example 15]
Q. Looking at recorded values for Cmax, does P or Q come in lower? Use the label to indicate which entry you chose.
A. Q

====

- protocolSummary: PK study in male C57 mouse for Examples 14 and 15
- Type: in vivo
- testContext: male, C57, mouse, plasma, po, 10 mg/kg, Example 15 dosed 10 mpk PO gavage
- Procedure: Pharmacokinetic studies were carried out with male C57 mouse. Compounds (Example 14 and Example 15) were each formulated in 5% DMSO+10% Solutol HS 15+85% Saline, and dosed at 1 mpk for IV injection (5 mL/kg) and 10 mpk for oral gavage (10 mUkg). Plasma samples at various time points were quantitated with LC-MS. Data reported were average of three mice. […]
property: MRT (min)
// return numeric value only (unit: min, not printed)

Q. Note down MRT recorded for COc1cc(C(=O)N2CCC3(CC2)Cc2ccc(-c4cncc(C(=O)O)c4)cc2C(=O)O3)nc2c(OC)cccc12
A. 59.4

====

- protocolSummary: PK study in male C57 mouse for Examples 14 and 15
- Type: in vivo
- testContext: male, C57, mouse, plasma, iv, 1 mg/kg, Example 14 dosed 1 mpk IV, 4.00 h, analyte = labelled compound
property: concentration at 4 h (ng/mL)

{"smilesNotation": "COc1cc(C(=O)N2CCC3(CC2)Cc2ccc(-c4cncc(C(=O)O)c4)cc2C(=O)O3)nc2c(OC)cccc12", "scaleUnit": "ng/mL", "val": 3.4}
{"smilesNotation": "COC(=O)c1cncc(-c2ccc3c(c2)C(=O)OC2(CCN(C(=O)c4cc(OC)c5cccc(OC)c5n4)CC2)C3)c1", "scaleUnit": "ng/mL", "val": 4.4}

====

- assayedSystem: human ACC1 (Homo sapiens)
pIC50: −log10 of the molar value.
property: pIC50

1 = COc1cc(C(=O)N2CCC3(CC2)Cc2ccc(-c4cncc(C(=O)O)c4)cc2C(=O)O3)cc2c1c(C)cn2C1CC1
2 = COC(=O)c1cncc(-c2ccc3c(c2)C(=O)OC2(CCN(C(=O)c4cc(OC)c5cccc(C6CC6)c5n4)CC2)C3)c1
Q. # returns the entry with the larger pIC50; inputs 1 and 2 State your choice using its label.
A. 1
(1: 7.62, 2: 5.95)

====

- protocolSummary: PK study in male C57 mouse for Examples 14 and 15
- Type: in vivo
- testContext: male, C57, mouse, plasma, iv, 1 mg/kg, Example 15 dosed 1 mpk IV, 0.25 h
- Procedure: Pharmacokinetic studies were carried out with male C57 mouse. Compounds (Example 14 and Example 15) were each formulated in 5% DMSO+10% Solutol HS 15+85% Saline, and dosed at 1 mpk for IV injection (5 mL/kg) and 10 mpk for oral gavage (10 mUkg). Plasma samples at various time points were quantitated with LC-MS. Data reported were average of three mice. […]
property: concentration at 0.25 h (ng/mL)
Numeric only. Scale: ng/mL

Q. Give recorded concentration at 0.25 h. COc1cc(C(=O)N2CCC3(CC2)Cc2ccc(-c4cncc(C(=O)O)c4)cc2C(=O)O3)nc2c(OC)cccc12
A. 414

====

- protocolSummary: PK study in male C57 mouse for Examples 14 and 15
- Type: in vivo
- testContext: male, C57, mouse, plasma, iv, 1 mg/kg, Example 15 dosed 1 mpk IV
property: MRT (min)
State just the number; it will be interpreted in min.

Q. Assign MRT to the following record: COc1cc(C(=O)N2CCC3(CC2)Cc2ccc(-c4cncc(C(=O)O)c4)cc2C(=O)O3)nc2c(OC)cccc12
A. 6.6

====

- protocolSummary: PK study in male C57 mouse for Examples 14 and 15
- Type: in vivo
- testContext: male, C57, mouse, plasma, po, 10 mg/kg, Example 14 dosed 10 mpk PO gavage, analyte = labelled compound
property: MRT (h)

1 = COC(=O)c1cncc(-c2ccc3c(c2)C(=O)OC2(CCN(C(=O)c4cc(OC)c5cccc(OC)c5n4)CC2)C3)c1
2 = COc1cc(C(=O)N2CCC3(CC2)Cc2ccc(-c4cncc(C(=O)O)c4)cc2C(=O)O3)nc2c(OC)cccc12
Q. Could you tell me which of 1 and 2 has the lower MRT reading? Response format: the label of the selected entry.
A. 1

====

- protocolSummary: PK study in male C57 mouse for Examples 14 and 15
- Format: in vivo
- testContext: male, C57, mouse, plasma, iv, 1 mg/kg, Example 14 dosed 1 mpk IV, 0.25 h, analyte = labelled compound
property: concentration at 0.25 h (ng/mL)

A = COC(=O)c1cncc(-c2ccc3c(c2)C(=O)OC2(CCN(C(=O)c4cc(OC)c5cccc(OC)c5n4)CC2)C3)c1
B = COc1cc(C(=O)N2CCC3(CC2)Cc2ccc(-c4cncc(C(=O)O)c4)cc2C(=O)O3)nc2c(OC)cccc12
Q. In terms of reported concentration at 0.25 h, does A or B have the smaller number? Lab note: record the label of whichever item you select.
A. B

====

- protocolSummary: PK study in male C57 mouse for Examples 14 and 15
- Type: in vivo
- testContext: male, C57, mouse, plasma, po, 10 mg/kg, Example 14 dosed 10 mpk PO gavage, 4.00 h, analyte = labelled compound
property: concentration at 4 h (ng/mL)

P = COc1cc(C(=O)N2CCC3(CC2)Cc2ccc(-c4cncc(C(=O)O)c4)cc2C(=O)O3)nc2c(OC)cccc12 [Example 15]
Q = COC(=O)c1cncc(-c2ccc3c(c2)C(=O)OC2(CCN(C(=O)c4cc(OC)c5cccc(OC)c5n4)CC2)C3)c1 [Example 14]
Q. Higher concentration at 4 h: P or Q ? Selection: enter the item's label.
A. Q

====

- protocolSummary: PK study in male C57 mouse for Examples 14 and 15
- Type: in vivo
- testContext: male, C57, mouse, plasma, po, 10 mg/kg, Example 15 dosed 10 mpk PO gavage, 0.25 h
property: concentration at 0.25 h (ng/mL)
# output: bare number, implied unit ng/mL

Q. Tell me concentration at 0.25 h reported for COc1cc(C(=O)N2CCC3(CC2)Cc2ccc(-c4cncc(C(=O)O)c4)cc2C(=O)O3)nc2c(OC)cccc12 [Example 15]
A. 164

All figures here come from patent US12102633B2.
